# assayRemarks: in vivo
# measurementParameters: rat, 1 mg/kg
testReadout: clearance (mL/min/kg)
Number in mL/min/kg, nothing else.

Report clearance, nothing else, for this compound: `CCc1c2c(nc3ccc(OC(=O)N4CCC(CCn5ccc6cc(-n7c(O)nnc7-c7cc(C(C)C)c(O)cc7O)ccc65)CC4)cc13)-c1cc3c(c(=O)n1C2)COC(=O)[C@]3(O)CC`
4.82

====

# assayRemarks: in vivo
# measurementParameters: rat, 1 mg/kg
testReadout: Cmax

Name the recorded Cmax of the item CCc1c2c(nc3ccc(OC(=O)N4CCC(CCn5ccc6cc(-n7c(O)nnc7-c7cc(C(C)C)c(O)cc7O)ccc65)CC4)cc13)-c1cc3c(c(=O)n1C2)COC(=O)[C@]3(O)CC [Compound A] in your answer.
11.8 µM

====

# assayRemarks: in vivo
# measurementParameters: rat, 1 mg/kg
testReadout: half-life
Kindly report the value followed by its unit.

Output half-life of `CCc1c2c(nc3ccc(OC(=O)N4CCC(CCn5ccc6cc(-n7c(O)nnc7-c7cc(C(C)C)c(O)cc7O)ccc65)CC4)cc13)-c1cc3c(c(=O)n1C2)COC(=O)[C@]3(O)CC`
59.1 min
